Target: human GPR119 (Homo sapiens)
Test: Measurement of GPR119 signaling (cAMP assay) in cells stably transfected with human GPR119
Type: cell-based
Details: table column; cAMP stimulation, human GPR119; read-out: GPR119 Human EC50
endpoint: EC50 (nM)
Please respond with the number in nM and leave the unit unwritten.

> print(dat)
                                   compound  units.of.measure  value
1  CCCOC(=O)N1CCC([C@H]2C[C@H]2CCOc2ccc(-n3cnnn3)cc2)CC1                nM    0.8
2  COCc1noc(N2CCC([C@H]3C[C@H]3CCOc3ccc(S(C)(=O)=O)c(F)c3)CC2)n1                nM    0.9
3  COCc1noc(N2CCC([C@H]3C[C@H]3CCOc3ccc(-n4cnnn4)cn3)CC2)n1                nM    1.6
4  CCOC(=O)N1CCC([C@H]2C[C@H]2CCOc2cc(F)c(C(=O)C3CC3)c(F)c2)CC1                nM    1.1
5  CCS(=O)(=O)c1ccc(OCC[C@@H]2C[C@@H]2C2CCN(c3nc(C(C)C)no3)CC2)cc1F                nM    1.8

According to the records, this compound `CC(C)c1noc(N2CCC([C@H]3C[C@H]3CCOc3ccc(CC(=O)N(C)Cc4cscn4)c(F)c3)CC2)n1` displays EC50 of 2.6

According to the records, this compound `COCc1noc(N2CCC([C@H]3C[C@H]3CCOc3ccc(CC(=O)N4CCC[C@H]4C(F)(F)F)c(F)c3)CC2)n1` displays EC50 of 3.6

----------
Molecular target: human GPR119 (Homo sapiens)
Experiment: Measurement of GPR119 signaling (cAMP assay) in cells stably transfected with human GPR119
Type: cell-based
Conditions: table column; cAMP stimulation, human GPR119; read-out: GPR119 Human EC50
endpoint: pEC50
pEC50 here: minus log base 10 of the concentration, concentration in moles per litre.

Illustrative cases are given below, each with its answer.
> print(dat)
                                   compound  value
1  COCCc1noc(N2CCC([C@H]3C[C@H]3CCOc3ccc(S(C)(=O)=O)cn3)CC2)n1 [Example 216]   7.59
2  O=C(NC1CC1)c1c(F)cc(OCC[C@@H]2C[C@@H]2C2CCN(C(=O)CCC(F)(F)F)CC2)cc1F [Example 97]   8.46
3  Cc1cc(CC(=O)N2CC(F)(F)C2)cnc1OCC[C@@H]1C[C@@H]1C1CCN(c2nc(C(C)C)no2)CC1 [Example 260]   8.42
4  CC(C)c1nc(N2CCC([C@H]3C[C@H]3CCOc3ccc(S(C)(=O)=O)cn3)CC2)no1 [Example 234]   8.46
5  Cc1nc2c(s1)CN(C(=O)Cc1ccc(OCC[C@@H]3C[C@@H]3C3CCN(c4nc(C(C)C)no4)CC3)cc1F)CC2 [Example 179]   8.59
6  CC(C)c1noc(N2CCC([C@H]3C[C@H]3CCOc3ccc(CC(=O)N4CCc5cncnc5C4)c(F)c3)CC2)n1 [Example 175]   8.49
7  CC(C)c1noc(N2CCC([C@H]3C[C@H]3CCOc3ccc(CC(=O)N(C)Cc4cc[nH]n4)c(F)c3)CC2)n1 [Example 167]   8.51
8  CC(C)c1noc(N2CCC([C@H]3C[C@H]3CCOc3ccc(S(C)(=O)=O)nc3)CC2)n1 [Example 130]   7.97

According to the records, this compound CC(C)OC(=O)N1CCC([C@H]2C[C@H]2CCOc2cc(F)c(S(C)(=O)=O)c(F)c2)CC1 [Example 39] displays pEC50 of 8.18

According to the records, this compound CC1(OC(=O)N2CCC([C@H]3C[C@H]3CCOc3ccc(-n4cnnn4)cc3)CC2)CCC1 [Example 10] displays pEC50 of 9.52

According to the records, this compound Cc1cc(CC(=O)N(C)C2CCS(=O)(=O)C2)cnc1OCC[C@@H]1C[C@@H]1C1CCN(c2nc(C(C)C)no2)CC1 (some centres unmarked) [Example 264] displays pEC50 of 7.96

According to the records, this compound CC(C)CC(=O)N1CCC([C@H]2C[C@H]2CCOc2ccc(-n3cnnn3)cc2)CC1 [Example 79] displays pEC50 of 8.11

According to the records, this compound CCS(=O)(=O)c1ccc(OCC[C@@H]2C[C@@H]2C2CCN(C(=O)OC3(C)CC3)CC2)cc1 [Example 36] displays pEC50 of 7.84

According to the records, this compound COC(C)c1noc(N2CCC([C@H]3C[C@H]3CCOc3ccc(S(C)(=O)=O)cn3)CC2)n1 (some centres unmarked) [Example 215] displays pEC50 of 8.24

----------
Listing: log10 EC50 of selected compounds
Biological target: human GPR119 (Homo sapiens, UniProt Q8TDV5)
Sequence (Q8TDV5 1-308 limits assumed): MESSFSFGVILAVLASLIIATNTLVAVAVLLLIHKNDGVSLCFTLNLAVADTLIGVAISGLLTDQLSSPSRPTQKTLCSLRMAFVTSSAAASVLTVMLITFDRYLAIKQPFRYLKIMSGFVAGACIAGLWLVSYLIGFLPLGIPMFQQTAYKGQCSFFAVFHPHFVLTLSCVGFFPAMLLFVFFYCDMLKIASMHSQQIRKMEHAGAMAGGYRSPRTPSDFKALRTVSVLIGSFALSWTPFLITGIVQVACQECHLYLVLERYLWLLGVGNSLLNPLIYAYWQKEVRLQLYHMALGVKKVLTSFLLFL
Test: Measurement of GPR119 signaling (cAMP assay) in cells stably transfected with human GPR119
Format: cell-based
Settings: cAMP stimulation; read-out: GPR119 HumC EC50
Base-10 log of EC50, unit nM.

> print(dat)
                            chemical.string  value
1  CN(C)C(=O)Cc1ccc(OCC[C@@H]2C[C@@H]2C2CCN(C(=O)OC3(C)CC3)CC2)cc1F   0.38
2  CC1(OC(=O)N2CCC([C@H]3C[C@H]3CCOc3ccc(CC(=O)N4CC(F)(F)C4)c(F)c3)CC2)CC1  -0.31
3  CC(C)c1noc(N2CCC([C@H]3C[C@H]3CCOc3cc(F)c(CC(=O)N4CCOCC4)c(F)c3)CC2)n1  -0.72

According to the records, this compound `CC(C)c1noc(N2CCC([C@H]3C[C@H]3CCOc3ccc(CC(=O)N4CCC4)c(C#N)c3)CC2)n1` displays log10 EC50 of 0.30

According to the records, this compound `CC(C)c1noc(N2CCC([C@H]3C[C@H]3CCOc3cc(F)c(CC(=O)N4CC(C)(O)C4)c(F)c3)CC2)n1` displays log10 EC50 of 0.38

According to the records, this compound `CC(C)c1noc(N2CCC([C@H]3C[C@H]3CCOc3cc(F)c(CC(=O)N4CC(F)C4)c(F)c3)CC2)n1` displays log10 EC50 of -0.92

According to the records, this compound `CC1(OC(=O)N2CCC([C@H]3C[C@H]3CCOc3ccc(CC(=O)N4CCOCC4)c(F)c3)CC2)CC1` displays log10 EC50 of 0.93

According to the records, this compound `CC1(COC(=O)N2CCC([C@H]3C[C@H]3CCOc3ccc(CC(=O)N4CCC4)c(F)c3)CC2)CC1` displays log10 EC50 of 0.56

According to the records, this compound `Cc1cc(OCC[C@@H]2C[C@@H]2C2CCN(c3nc(C(C)C)no3)CC2)ccc1CC(=O)N1CCC1` displays log10 EC50 of 0.04

According to the records, this compound `COCc1noc(N2CCC([C@H]3C[C@H]3CCOc3ccc(CC(=O)N(C)C)c(C)c3)CC2)n1` displays log10 EC50 of 0.72

According to the records, this compound `Cc1cc(OCC[C@@H]2C[C@@H]2C2CCN(c3nc(C(C)C)no3)CC2)ccc1CC(=O)N(C)C` displays log10 EC50 of 0.53

According to the records, this compound `CC1(OC(=O)N2CCC([C@H]3C[C@H]3CCOc3ccc(CC(=O)N4CCC4)c(C#N)c3)CC2)CC1` displays log10 EC50 of 0.43

According to the records, this compound `CC(C)c1noc(N2CCC([C@H]3C[C@H]3CCOc3cc(F)c(CC(=O)N(C)C)c(F)c3)CC2)n1` displays log10 EC50 of -0.59

According to the records, this compound `CC(C)c1noc(N2CCC([C@H]3C[C@H]3CCOc3cc(F)c(CC(=O)N4CCC4)c(F)c3)CC2)n1` displays log10 EC50 of -0.62

----------
Molecular target: human GPR119 (Homo sapiens, UniProt Q8TDV5)
Experiment: Measurement of GPR119 signaling (cAMP assay) in cells stably transfected with human GPR119
Format: cell-based
Details: table column; cAMP stimulation, human GPR119; read-out: GPR119 Human EC50
endpoint: pEC50
pEC50 here: minus log base 10 of the concentration, concentration in moles per litre.

Illustrative cases are given below, each with its answer.
> print(dat)
                            chemical.string  value
1  O=C(c1c(F)cc(OCC[C@@H]2C[C@@H]2C2CCN(c3nc4cnccn4n3)CC2)cc1F)C1CC1   8.39
2  CC(C)c1noc(N2CCC([C@H]3C[C@H]3CCOc3ccc(CC(=O)N(C)Cc4ccon4)c(F)c3)CC2)n1   8.77
3  CC(C)(C)COC(=O)N1CCC([C@H]2C[C@H]2CCOc2ccc(-n3cnnn3)cc2)CC1   7.82
4  COCCc1noc(N2CCC([C@H]3C[C@H]3CCOc3ccc(-n4cnnn4)cn3)CC2)n1   7.97
5  CC(C)c1noc(N2CCC([C@H]3C[C@H]3CCOc3ccc(CC(=O)N(C)C4CCCC4)c(F)c3)CC2)n1   8.30
6  CS(=O)(=O)c1ccc(OCC[C@@H]2C[C@@H]2C2CCN(c3noc(CCC(F)(F)F)n3)CC2)nc1   7.74

Now for another entry.
According to the records, this compound `CC(C)c1noc(N2CCC([C@H]3C[C@H]3CCOc3ccc(CC(=O)N(C)C4COC4)c(F)c3)CC2)n1` displays pEC50 of 9.06
